- Target System: recombinant human FLAP protein (Homo sapiens, UniProt P20292)
- Sequence (P20292 1-161): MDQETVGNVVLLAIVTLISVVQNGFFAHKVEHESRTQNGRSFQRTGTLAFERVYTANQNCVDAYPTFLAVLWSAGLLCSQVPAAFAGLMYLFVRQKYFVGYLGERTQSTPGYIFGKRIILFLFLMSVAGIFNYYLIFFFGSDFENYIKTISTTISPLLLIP
- Experiment Description: FLAP binding assay (Scintillation Proximity Assay, displacement of [125I]L-691,831)
- Assay Setup: recombinant human FLAP membranes, [125I]L-691,831 probe; read-out: FLAP SPA IC50
Below: a set of entries, each annotated with reported log10 of IC50.
Units before log transform: nM; reported quantity: IC50; transform: log10.

>>> recorded_result("Nc1cnc(-c2ccc(C3(c4noc(-c5cnc(N6CCNCC6)cn5)n4)CCC3)cc2)cn1")
0.41
>>> recorded_result("CO[C@H]1CCN(C(=O)Cn2cc(-c3nc(C4(c5ccc(-c6cnc(N)nc6)cc5)CCC4)no3)cn2)C1")
1.20
>>> recorded_result("Cn1ccc(-c2nc(C3(c4ccc(-c5cnc(N)nc5)cc4)CCC3)no2)n1")
0.69

Ask: I'm curious: which log10 of IC50 was measured for C[C@@H]1CCC[C@H](C)N1c1nc(C2(c3ccc(-c4cnc(N)nc4)cc3)CCC2)no1 tested on recombinant human FLAP protein (Homo sapiens, UniProt P20292)?
Result: 1.08

Ask: Would you kindly repeat that for Nc1ncc(-c2ccc(C3(c4noc(-c5cnc(N6CC(O)C6)cn5)n4)CCC3)cc2)cn1 ?
Result: 0.08

Ask: Would you kindly repeat that for CN(CCO)c1ccc(-c2nc(C3(c4ccc(-c5cnc(N)nc5)cc4)CCC3)no2)cn1 ?
Result: 0.08

Ask: Would you kindly repeat that for Nc1ncc(-c2ccc(C3(c4noc(N5CCCC(CO)C5)n4)CCC3)cc2)cn1 (stereo not drawn) ?
Result: 1.15

Ask: Would you kindly repeat that for CC(C)(CO)n1cc(-c2nc(C3(c4ccc(-c5cnc(N)nc5)cc4)CCC3)no2)cn1 ?
Result: 0.60

Ask: Would you kindly repeat that for Nc1ncc(-c2ccc(C3(c4noc(-c5cnccn5)n4)CCC3)cc2)cn1 ?
Result: 0.76

Ask: Would you kindly repeat that for Cc1cc(-c2ccc(C3(c4noc(-c5cnn(C)c5)n4)CCC3)cc2)cnc1N ?
Result: 0.28

Ask: Would you kindly repeat that for Nc1ncc(-c2ccc(C3(c4noc(-c5ccc(C(=O)N6CCOCC6)nc5)n4)CCC3)cc2)cn1 ?
Result: 0.81

Ask: Would you kindly repeat that for Nc1ncc(-c2ccc(C3(c4noc(-c5ccncn5)n4)CCC3)cc2)cn1 ?
Result: 1.15

---

- Target System: recombinant human FLAP protein (Homo sapiens, UniProt P20292)
- Construct: made in house; host or cells: Sf9 insect cells (100,000 x g membrane fraction)
- Experiment Description: FLAP binding assay (Scintillation Proximity Assay, displacement of [125I]L-691,831)
- Assay Setup: recombinant human FLAP membranes, [125I]L-691,831 probe; read-out: FLAP SPA IC50
Below: a set of entries, each annotated with reported pIC50.
As a rule, pIC50 stands for the negative log10 of the concentration, concentration in M.

>>> recorded_result("Nc1ncc(-c2ccc(C3(c4noc(-c5cnc(N6CCNCC6)cn5)n4)CCC3)cc2)cn1 [Example 307]")
8.46
>>> recorded_result("Nc1ncc(-c2ccc(C3(c4noc(-c5cnn(CC(=O)NC6CC6)c5)n4)CCC3)cc2)cn1 [Example 132]")
8.55
>>> recorded_result("Nc1ncc(-c2ccc(C3(c4noc(-c5cn(C6COC6)cn5)n4)CCC3)cc2)cn1 [Example 263]")
7.80
>>> recorded_result("CC(C)CNC(=O)Cn1cc(-c2nc(C3(c4ccc(-c5cnc(N)nc5)cc4)CCC3)no2)cn1 [Example 217]")
8.47
>>> recorded_result("Cn1cc(-c2nc(C3(c4ccc(-c5cnc6[nH]ccc6c5)cc4)CCC3)no2)cn1 [Example 273]")
8.41

Ask: I'm curious: which pIC50 was measured for CC(C)N1CCN(C(=O)Cn2cc(-c3nc(C4(c5ccc(-c6cnc(N)nc6)cc5)CCC4)no3)cn2)CC1 [Example 243] tested on recombinant human FLAP protein (Homo sapiens, UniProt P20292)?
Result: 8.07

Ask: Would you kindly repeat that for CCNC(=O)Cn1cc(-c2nc(C3(c4ccc(-c5cnc(N)nc5)cc4)CCC3)no2)cn1 [Example 130] ?
Result: 8.82

Ask: Would you kindly repeat that for Cn1cc(-c2nc(C3(c4ccc(-c5cnc(N)nc5)cc4)CC3)no2)cn1 [Example 257] ?
Result: 7.00

Ask: Would you kindly repeat that for CCN(CC)C(=O)Cn1cc(-c2nc(C3(c4ccc(-c5cnc(N)nc5)cc4)CCC3)no2)cn1 [Example 131] ?
Result: 8.41

---

- Target System: recombinant human FLAP protein (Homo sapiens, UniProt P20292)
- Experiment Description: FLAP binding assay (Scintillation Proximity Assay, displacement of [125I]L-691,831)
- Assay Setup: recombinant human FLAP membranes, [125I]L-691,831 probe; read-out: FLAP SPA IC50
Below: a set of entries, each annotated with reported IC50.
Form entry: value (nM) — number only.

Here are 5 molecules together with their reported answers.
>>> recorded_result("Nc1ncc(-c2ccc(C3(c4noc(-c5ccccc5)n4)CCOCC3)cc2)cn1")
15
>>> recorded_result("Cn1cc(-c2nc(C3(c4ccc(-c5cnc(N)nc5)cc4)CCC3)no2)ccc1=O")
5.6
>>> recorded_result("Nc1ncc(-c2ccc(C3(c4noc(-c5ccc(C(=O)N6CCC(O)C6)nc5)n4)CCC3)cc2)cn1 (stereo not drawn)")
4.7
>>> recorded_result("Nc1ncc(-c2ccc(C3(c4noc(-c5cc[nH]c(=O)c5)n4)CCC3)cc2)cn1")
2.6
>>> recorded_result("COc1cc(-c2nc(C3(c4ccc(-c5cnc(N)nc5)cc4)CCC3)no2)on1")
4

Then this molecule:
Ask: Recorded IC50 of Nc1ncc(-c2ccc(C3(c4noc(-c5ccc(C(=O)N6CC(O)C6)nc5)n4)CCC3)cc2)cn1 , please.
Result: 7.7

---

- Target System: recombinant human FLAP protein (Homo sapiens, UniProt P20292)
- Experiment Description: FLAP binding assay (Scintillation Proximity Assay, displacement of [125I]L-691,831)
- Assay Setup: recombinant human FLAP membranes, [125I]L-691,831 probe; read-out: FLAP SPA IC50
Property Label: IC50 (nM)
Form entry: value (nM) — number only.

Here are 5 compounds together with their reported answers.
>>> recorded_result("COc1ccc(-c2nc(C3(c4ccc(-c5cnc(N)nc5)cc4)CCC3)no2)cc1 [Example 48]")
2.5
>>> recorded_result("Nc1ncc(-c2ccc(C3(c4noc(-c5nc[nH]n5)n4)CCC3)cc2)cn1 [Example 96]")
13
>>> recorded_result("CN(C)C(=O)c1ccc(-c2nc(C3(c4ccc(-c5cnc(N)nc5)cc4)CCC3)no2)cn1 [Example 29]")
6.9
>>> recorded_result("CNc1ncc(-c2ccc(C3(c4noc(-c5cnn(C)c5)n4)CCC3)cc2)cn1 [Example 294]")
4.4
>>> recorded_result("Nc1ncc(-c2ccc(C3(c4noc(-c5nccnc5N)n4)CCC3)cc2)cn1 [Example 19]")
11

Then this compound:
Ask: I'm curious: which IC50 was measured for Cc1noc(C)c1-c1nc(C2(c3ccc(-c4cnc(N)nc4)cc3)CCC2)no1 [Example 164] tested on recombinant human FLAP protein (Homo sapiens, UniProt P20292)?
Result: 5.5

---

Below: a set of entries, each annotated with reported IC50.
- Target System: recombinant human FLAP protein (Homo sapiens, UniProt P20292)
- Experiment Description: FLAP binding assay (Scintillation Proximity Assay, displacement of [125I]L-691,831)
- Assay Setup: recombinant human FLAP membranes, [125I]L-691,831 probe; read-out: FLAP SPA IC50
Form entry: value (nM) — number only.

>>> recorded_result("Cn1nccc1-c1nc(C2(c3ccc(-c4cnc(N)nc4)cc3)CCC2)no1 [Example 57]")
1.8
>>> recorded_result("COC1CCN(C(=O)Cn2cc(-c3nc(C4(c5ccc(-c6cnc(N)nc6)cc5)CCC4)no3)cn2)C1 (stereo not drawn) [Example 210]")
4.6

Then this compound:
Ask: I'm curious: which IC50 was measured for Nc1ncc(-c2ccc(C3(c4noc(N5CCCC5)n4)CCC3)cc2)cn1 [Example 12] tested on recombinant human FLAP protein (Homo sapiens, UniProt P20292)?
Result: 8.3

The measured values listed here are drawn from patent US8580829B2.
